- Tested on: HL-60(TB) leukemia
- run_description: NCI-60 one-dose screen, 48 h (100 = growth as untreated, 0 = no growth, -100 = all killed)
- setup_conditions: 10 µM unless noted
This is part of a sample that, as a whole, favours compounds with a hit. Of some 83,000 tested, about 20% had one in any assay. Activity calls are given as the source filed them. The calls were made as follows: active = growth percent below 10; inactive = the rest.
growth: recorded values

item_smiles | growth
CCCCCCCCCCCCCCCC(=O)NS(=O)(=O)OC[C@H]1O[C@@H](n2cnc3c(N)ncnc32)[C@H](O)[C@@H]1O | -11.6% (active)
C=C(C)[C@@H]1CC[C@]2(C(=O)N3CCN(C)CC3)CC[C@]3(C)[C@H](CC[C@@H]4[C@@]5(C)CC[C@H](OC(=O)c6ccccc6C(=O)O)C(C)(C)[C@@H]5CC[C@]43C)[C@@H]12 | 106% (inactive)
Cc1ccc(-c2cnc3sc4ccc(Cl)cc4n23)cc1 | 90.5% (inactive)
Cc1nc(C)c(C)nc1C | 73.9% (inactive)
Nc1c(C(=O)Nc2ccccc2)sc2nc3c(cc12)CCC3 | 60.9% (inactive)
O=C(CC(=O)C(F)(F)C(F)(F)C(F)(F)F)c1cc2ccccc2o1 | 99.3% (inactive)
CCCc1cc2c(cc1CN(Cc1cc3c(cc1CCC)OCO3)C(=N)OCC)OCO2 | 105% (inactive)
O=C1C=C(O)c2ccccc2C1=O.[Ag] | 96% (inactive)
CCOC(=O)C1CCN(S(=O)(=O)/N=C2/NC(=O)NC2=C(Cl)Cl)CC1 | -45.9% (active)
N#CC1(O)CCCCC1 | 104% (inactive)
CCOC(=O)c1cnc2ccc(Br)cc2c1Nc1cccc(S(N)(=O)=O)c1 | 99.5% (inactive)
Oc1ccc(CCl)c2cccnc12 | 81% (inactive)

###

- System: SF-295 CNS
- run_description: NCI-60 one-dose screen, 48 h (100 = growth as untreated, 0 = no growth, -100 = all killed)
- setup_conditions: 10 µM unless noted
The panel holds about 83,000 compounds, 20% with a hit somewhere; the sample as a whole holds those more often.
growth: recorded values

molecule | growth (%)
CC(=O)Nc1ccc(C=C2C(=O)NC(=O)NC2=O)cc1 | 104
CC(/C=N/N=C(N)N)=N\N=C(N)N | 85.5
NCCc1cc(O)c(O)cc1O | 106
CCC(C)/C=C(C)/C=C/C(=O)c1c(O)c(-c2ccc(O)cc2)c[nH]c1=O (stereo unspecified) | 57.5
C[C@]12CC[C@@H]3c4ccc(OC(=O)Cc5ccc(N(CCCl)CCCl)cc5)cc4CC[C@H]3[C@@H]1CC[C@@H]2OC(=O)Cc1ccc(N(CCCl)CCCl)cc1 | 103
CC(=O)O[C@H]1CC[C@H]2[C@@H]3CC[C@H]4CC=C(C)C[C@]4(C)[C@H]3CC[C@]12C | 103
O=C(O)CNC(=O)c1ccccc1 | 104
c1ccc2nc(OCCN3CC3)ccc2c1 | 75.8
O=C(CCF)c1ccc(O)cc1 | 100
CC(=O)O[C@H]1CCC2(C)C(=CCC3C2CCC2(C)/C(=N/OC(=O)c4ccc(N(CCCl)CCCl)cc4)CCC32)C1 (stereo partly specified) | 63.5
COC1=CC(=O)OC(CCc2ccc3c(c2)OCO3)C1 (stereo unspecified) | 116
CC(=O)O[C@@H]1C2=C(C)C3(CC3)[C@@](C)(O)C(=O)C2=C[C@@]1(C)CO | -3.92
COC(=O)C[Se]C(=O)c1ccccc1OC(C)=O | 53.3
CC1=C(SCCC(=O)OCC(=O)NCCC[Te]c2ccccc2)C(=O)c2ccccc2C1=O | -35.6
C[C@@H]1O[C@@H](O[C@H]2CC[C@@]3(C)[C@H](CCC4[C@@H]3C(O)C[C@]3(C)[C@@H](c5ccc(=O)oc5)CC[C@]43O)C2)[C@H](O)[C@H](O)[C@H]1O (stereo partly specified) | -71.5
Oc1c(Br)cc(Br)cc1Br.[Cu+2] | 97.6
N#CC1c2ccccc2C=CN1C(=O)c1ccc(N(CCCl)CCCl)cc1 (stereo unspecified) | 90.6
N#[N+]c1nc2nc(N)[nH]c(=O)c2[nH]1 | 101
O=C(CF)N(O)c1ccc(/C=C/c2ccccc2)cc1 | 9.04
CO[C@@H]1[C@H](OC(=O)NC(=O)CCl)CC[C@]2(CO2)[C@H]1[C@@]1(C)O[C@@H]1CC=C(C)C | 75.1
FC(F)=C(F)c1ccccc1 | 96.5

###

- System: HL-60(TB) leukemia
- run_description: NCI-60 one-dose screen, 48 h
- setup_conditions: 10 µM unless noted
Compounds without any hit were thinned out: in the full panel of roughly 83,000, 20% have a hit. Active and inactive are the calls of the source. The calls were made as follows: active = growth percent below 10; inactive = the rest.
Classes used: yes (1) = active, no (0) = inactive

compound | label
Nc1nc(NC2CC2)cc(-c2cccc(Cl)c2Cl)n1 | no (0)
CC(=O)Oc1cc2cnc3c4cc(OC(C)=O)c(OC(C)=O)cc4ccc3c2cc1OC(C)=O | yes (1)
COc1cc(/C=C2\Oc3cc(OCC(=O)c4ccccc4)ccc3C2=O)cc(OC)c1OC | no (0)
CCOC(=O)NC1=NCC(C)(C)S1 | no (0)
Nc1nc(Nc2ccccc2)c2ncn(Cc3cc4c(cc3Br)OCO4)c2n1 | yes (1)
O=C(c1nc2ccccc2[nH]1)C1C(c2ccc([N+](=O)[O-])cc2)C2CC3CCCCC3N2[C@@]12C(=O)Nc1cc(Cl)ccc12 (stereo partly specified) | yes (1)

###

growth: recorded values
- Test system: HL-60(TB) leukemia
- run_description: NCI-60 one-dose screen, 48 h (100 = growth as untreated, 0 = no growth, -100 = all killed)
- setup_conditions: 10 µM unless noted
The panel holds about 83,000 compounds, 20% with a hit somewhere; the sample as a whole holds those more often. Activity calls are given as the source filed them. The calls were made as follows: active = growth percent below 10; inactive = the rest.

compound | target_entity | growth
CCOc1ccc(N=C(C)Nc2ccc(OCC)cc2)cc1 | HL-60(TB) leukemia | 76.4% (inactive)
C=CCCCCOc1ccccc1-c1cnc(OCCCCC=C)n1C | HL-60(TB) leukemia | 66.5% (inactive)
O=C(S)CNC(=O)c1ccccc1 | HL-60(TB) leukemia | 91% (inactive)
O=C1Nc2ccccc2/C1=C/c1cccn1C(=O)c1ccc(Cl)s1 | HL-60(TB) leukemia | 57.3% (inactive)
CC(C)(C)OC(=O)NCCc1ccc(N=C=S)cc1 | HL-60(TB) leukemia | 19.8% (inactive)
C#Cc1ccc(NC(=O)Cc2ccc(/C=C/C(=O)c3nccn3C)cc2)cc1 | HL-60(TB) leukemia | 16.5% (inactive)
CCOC(=O)C(CCCCC(NC(C)=O)(C(=O)OCC)C(=O)OCC)(NC(C)=O)C(=O)OCC | HL-60(TB) leukemia | 104% (inactive)
C=C1C(=O)O[C@H]2[C@H]1CC/C(COC(=O)NCc1cccc(OC)c1)=C\CC[C@@]1(C)O[C@@H]21 | HL-60(TB) leukemia | -38.6% (active)
CC(C)COCC(CN(Cc1ccccc1)c1ccccc1)N1CCCC1 (stereo unspecified) | HL-60(TB) leukemia | 82.4% (inactive)
COc1ccc(Cl)cc1Nc1nc(C(F)(F)F)ccc1C(=O)N/N=C/c1ccc([N+](=O)[O-])cc1 | HL-60(TB) leukemia | -10.8% (active)
NCCN1CCNCC1 | HL-60(TB) leukemia | 97.6% (inactive)

###

- Tested on: HOP-92 NSCLC
- run_description: NCI-60 one-dose screen, 48 h
- setup_conditions: 10 µM unless noted
Compounds without any hit were thinned out: in the full panel of roughly 83,000, 20% have a hit. Active and inactive are the calls of the source. How the source made its calls: active means growth percent below 10; inactive means the rest.
Classes used: T (active), F (inactive)

molecule | label
COc1ccccc1N1CCN(CCc2c[nH]c3cc4c(cc23)OCO4)CC1 | T
CCC[CH2][Sn]1([CH2]CCC)[O]C(=O)c2cccc([N+](=O)[O-])c2C(=O)[O]1 | T
O=C(CC1(O)C(=O)Nc2ccc(F)cc21)c1ccc(C(=O)NCC2CCC3(CC2)OOC2(CCCCC2)OO3)cc1 (stereo unspecified) | T
N#CC1c2ccccc2C=CN1C(=O)c1ccc(N(CCCl)CCCl)cc1 (stereo unspecified) | F
Oc1ccc(Br)cc1CN1CCN(Cc2ccc(Cl)cc2)CC1 | F
Oc1ccc(O)c2c1C1(Cl)C(Cl)=C(Cl)C2(Cl)C1(Cl)Cl | F
Oc1ccccc1OB(Oc1ccccc1O)N(CCCl)CCCl | F
CCCCCCCCCCOc1ccc(C(=O)Oc2ccc(CSP3(=O)OCC4OC(n5ccc(=O)[nH]c5=O)C(F)C4OP(=O)(O)OCC4OC(n5cnc6c(N)ncnc65)C(F)C4O3)cc2)cc1 (stereo unspecified) | F
CNC(=O)Oc1cccc(OC)c1 | F
NCCc1cc(O)c(O)cc1O | F
COc1cc(NCCCCCN=C(N)N)c2ncccc2c1 | F
C[C@@H]1CC[C@@H]2[C@@H]1[C@H](OC(=O)/C=C/C1CCCCC1)[C@]1(C3CCCCC3)C[C@@H](OC(=O)CO)[C@@]2(C)O1 | F
O=[N+]([O-])c1cc([N+](=O)[O-])c(Cl)c(Cl)c1Cl | T
O=[N+]([O-])c1ccc2cnn(CSP(=S)(c3ccccc3)c3ccccc3)c2c1 | F
CCC(/C=C(C)/C=C/C(=O)c1c(O)c(-c2ccc(O)cc2)c[nH]c1=O)CO (stereo unspecified) | F
ClCCN(CCCl)c1ccc(/C=C\c2ccnc3ccccc23)cc1 | F
CCOCC1(CCc2ccccc2)C(=O)NC(=S)NC1=O | F
O=C1C=CC(=O)C2C1C1(Cl)C(Cl)=C(Cl)C2(Cl)C1(Cl)Cl (stereo unspecified) | F
COc1ccc(NP2(=O)OCC(C)(N)CO2)cc1 (stereo unspecified) | F
COc1cc(C2(C#N)CCN(C)CC2)cc(OC)c1OC | F
[Cl][Hg][n]1cnc2c(Cl)c(Cl)c(Cl)cc21 | F

Origin of the recorded values: PubChem BioAssay (NCI)
